tested on: WI-38; assay: Antiproliferative activity against human WI38 cells after 72 hrs by MTT assay; format: functional, cell-based; details: WI-38, 72 h
Define the label as t when IC50 is strictly less than 2 µM and as f in all remaining cases.

1) O=C1O/C(=C\Cn2cc(-c3ccc(Br)o3)c(=O)[nH]c2=O)C(OCc2ccccc2)=C1OCc1ccccc1	f
2) O=C1O/C(=C\Cn2cc(C#Cc3ccccc3)c(=O)[nH]c2=O)C(OCc2ccccc2)=C1OCc1ccccc1	f
3) C=CCc1cn(C/C=C2\OC(=O)C(OCc3ccccc3)=C2OCc2ccccc2)c(=O)[nH]c1=O	f
4) C=Cc1cn(C/C=C2\OC(=O)C(OCc3ccccc3)=C2OCc2ccccc2)c(=O)[nH]c1=O	f
5) C#Cc1cn(C/C=C2\OC(=O)C(OCc3ccccc3)=C2OCc2ccccc2)c(=O)[nH]c1=O	t
6) O=C1O/C(=C\Cn2cc(-c3ccco3)c(=O)[nH]c2=O)C(O)=C1O	f
7) CC#Cc1cn(C/C=C2\OC(=O)C(OCc3ccccc3)=C2OCc2ccccc2)c(=O)[nH]c1=O	t
8) C#Cc1cn(C/C=C2\OC(=O)C(O)=C2O)c(=O)[nH]c1=O	f
9) O=C1O/C(=C\Cn2cc(-c3cccs3)c(=O)[nH]c2=O)C(OCc2ccccc2)=C1OCc1ccccc1	f
10) O=C1O/C(=C\Cn2cc(C#Cc3ccccc3)c(=O)[nH]c2=O)C(O)=C1O	t
11) O=C1O/C(=C\Cn2cc(-c3ccccc3)c(=O)[nH]c2=O)C(OCc2ccccc2)=C1OCc1ccccc1	f
12) O=C1O/C(=C\Cn2cc(-c3ccco3)c(=O)[nH]c2=O)C(OCc2ccccc2)=C1OCc1ccccc1	t
13) O=C1O/C(=C(\Br)Cn2c(Br)c(/C=C/Br)c(=O)[nH]c2=O)C(OCc2ccccc2)=C1OCc1ccccc1	f
14) O=C1O/C(=C\Cn2cc(-c3cccs3)c(=O)[nH]c2=O)C(O)=C1O	f
15) C=Cc1cn(C/C=C2\OC(=O)C(O)=C2O)c(=O)[nH]c1=O	f
16) O=C1O/C(=C\Cn2cc(/C=C/Br)c(=O)[nH]c2=O)C(OCc2ccccc2)=C1OCc1ccccc1	f
17) C=C=Cc1cn(C/C=C2\OC(=O)C(OCc3ccccc3)=C2OCc2ccccc2)c(=O)[nH]c1=O	f
18) O=C1O/C(=C\Cn2cc(-c3ccccc3)c(=O)[nH]c2=O)C(O)=C1O	f
19) O=C1O/C(=C\Cn2cc(-c3ccc(Cl)o3)c(=O)[nH]c2=O)C(OCc2ccccc2)=C1OCc1ccccc1	f

FYI, the data here is from ChEMBL document CHEMBL1144557.
